# Tested on: HCT-15 colon
# procedure details: NCI-60 one-dose screen, 48 h (100 = growth as untreated, 0 = no growth, -100 = all killed)
# measurement context: 10 µM unless noted
# Procedure: Growth inhibition of the HCT-15 human tumor cell line is measured as a screen for anti-cancer activity. Cells are grown in 96 well plates and exposed to the test compound for 48 hours. Compounds are tested at a single concentration, which is 10^-5 M for most compounds. The reported endpoint is percent growth (GI% or GIPRCNT), where numbers from 0 - 100% represent growth inhibition, and numbers from -100% - 0 represent cell death. For example, a value of 40 represents 60% growth inhibition. […]
This is part of a sample that, as a whole, favours compounds with a hit. Of some 83,000 tested, about 20% had one in any assay.
For each of the compounds below, state its growth.
Numbers only, in %.

Known results for compounds:
COc1ccccc1OCC(=O)N1CCCCCC1
103
Cn1/c(=N/NC(N)=S)ccc2ccccc21
82.3

The compound listed as CSc1nc(O)c(-c2ccccc2)c(=O)[nH]1 shows growth equal to 102
